Biological target: His-hMAGL (recombinant polyhistidine tagged human MAGL protein) (Homo sapiens)
Construct: made in house; host or cells: E. coli BL21(DE3)
Sequence (Q99685 whole entry): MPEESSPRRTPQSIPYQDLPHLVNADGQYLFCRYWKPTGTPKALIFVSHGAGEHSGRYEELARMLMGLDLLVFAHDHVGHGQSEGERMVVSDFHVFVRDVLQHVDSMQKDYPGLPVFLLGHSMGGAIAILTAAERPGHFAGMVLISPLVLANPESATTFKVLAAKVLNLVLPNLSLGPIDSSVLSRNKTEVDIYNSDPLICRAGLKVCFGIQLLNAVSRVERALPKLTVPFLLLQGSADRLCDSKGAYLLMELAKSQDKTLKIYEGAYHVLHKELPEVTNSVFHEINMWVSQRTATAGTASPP
Test: Measurement of MAGL inhibitory activity (arachidonic acid production from 2-arachidonylglycerol, RapidFire-mass spectrometry)
Type: biochemical
Conditions: MAGL inhibitory rate, test compound 10 μM, 60 min preincubation, 2-arachidonylglycerol substrate
observedProperty: inhibition at 10 µM (%)

stdin: Which inhibition at 10 µM is listed for O=C1CCC2(CN(C(=O)c3ccc4nc(-c5ccc(F)cc5)oc4c3)C2)N1 ?
stdout: 89

stdin: Which inhibition at 10 µM is listed for O=C1CCC2(CN(C(=O)c3sc(-c4cccc(C5(C(F)(F)F)CC5)c4)cc3Cl)C2)N1 ?
stdout: 100

stdin: Which inhibition at 10 µM is listed for Cc1ccc(-c2ccc3c(Cl)c(C(=O)N4CC5(CCC(=O)N5)C4)sc3c2)cc1 ?
stdout: 99

stdin: Which inhibition at 10 µM is listed for O=C1CCC2(CN(C(=O)N3CCC(Cc4ccc(Cl)cc4Cl)CC3)C2)N1 ?
stdout: 102

stdin: Which inhibition at 10 µM is listed for O=C1NC2(CO1)CN(C(=O)c1ccc(-c3cccc(C4(C(F)(F)F)CC4)c3)cc1)C2 ?
stdout: 99

stdin: Which inhibition at 10 µM is listed for O=C1CCC2(CN(C(=O)[C@H]3C[C@H](COc4ccc(F)cc4Cl)C3)C2)N1 ?
stdout: 98

stdin: Which inhibition at 10 µM is listed for O=C1CCC2(CN(C(=O)N3CCC(C(F)(F)c4ccc(Cl)cc4Cl)CC3)C2)N1 ?
stdout: 100

stdin: Which inhibition at 10 µM is listed for Cc1ncccc1-c1ccc2c(Cl)c(C(=O)N3CC4(CCC(=O)N4)C3)sc2c1 ?
stdout: 100

stdin: Which inhibition at 10 µM is listed for O=C1CCC2(CN(C(=O)c3sc(-c4ccc(OC(F)(F)F)cc4)cc3Cl)C2)N1 ?
stdout: 93

stdin: Which inhibition at 10 µM is listed for O=C1CCC2(CN(C(=O)N3CCC(C(F)(F)c4ccc(F)cc4)CC3)C2)N1 ?
stdout: 98

stdin: Which inhibition at 10 µM is listed for O=C1NC2(CO1)CN(C(=O)c1sc3c(C(F)(F)F)cccc3c1OCC(F)(F)F)C2 ?
stdout: 100

stdin: Which inhibition at 10 µM is listed for O=C1CCC2(CN(C(=O)c3ccc(-c4ccc5c(c4)OCC5)cc3)C2)N1 ?
stdout: 95

stdin: Which inhibition at 10 µM is listed for O=C1CCC2(CN(C(=O)c3ccc(-c4ccc(Cl)cc4Cl)cc3)C2)N1 ?
stdout: 101

stdin: Which inhibition at 10 µM is listed for Cc1ccccc1-c1ccc2c(Cl)c(C(=O)N3CC4(CCC(=O)N4)C3)sc2c1 ?
stdout: 99

stdin: Which inhibition at 10 µM is listed for COc1cc(F)c2c(Cl)c(C(=O)N3CC4(COC(=O)N4)C3)sc2c1 ?
stdout: 101

stdin: Which inhibition at 10 µM is listed for Cc1ccsc1-c1ccc2c(Cl)c(C(=O)N3CC4(CCC(=O)N4)C3)sc2c1 ?
stdout: 100

stdin: Which inhibition at 10 µM is listed for O=C1NC2(CO1)CN(C(=O)c1sc3cc(OC(F)(F)F)ccc3c1C(F)F)C2 ?
stdout: 100

stdin: Which inhibition at 10 µM is listed for Cc1c(C(F)(F)F)ccc2c(Cl)c(C(=O)N3CCC4(COC(=O)N4)C3)sc12 (stereo not shown) ?
stdout: 100

stdin: Which inhibition at 10 µM is listed for Cc1c(OC(F)(F)F)ccc2c(Cl)c(C(=O)N3CC4(COC(=O)N4)C3)sc12 ?
stdout: 100

stdin: Which inhibition at 10 µM is listed for O=C1CCC2(CN(C(=O)N3CCC(Cc4ccccc4F)CC3)C2)N1 ?
stdout: 101

stdin: Which inhibition at 10 µM is listed for O=C1CCC2(CN(C(=O)c3ccc(-c4cccc(C(F)(F)F)c4Cl)cc3)C2)N1 ?
stdout: 99

stdin: Which inhibition at 10 µM is listed for CC1(c2cccc(-c3ccc(C(=O)N4CC5(COC(=O)N5)C4)cc3F)c2)CC1 ?
stdout: 101

stdin: Which inhibition at 10 µM is listed for O=C1CCC2(CN(C(=O)N3CCC(Cc4ccc(Cl)cc4)CC3)C2)N1 ?
stdout: 100

stdin: Which inhibition at 10 µM is listed for O=C1CCC2(CN(C(=O)N3CC(COc4ccc(C(F)(F)F)cc4Cl)C3)C2)N1 ?
stdout: 98

stdin: Which inhibition at 10 µM is listed for CC(Oc1ccc(C(F)(F)F)cc1F)C1CN(C(=O)N2CC3(CCC(=O)N3)C2)C1 (stereo not shown) ?
stdout: 101

stdin: Which inhibition at 10 µM is listed for Cc1ccc(OCC2CN(C(=O)N3CC4(CCC(=O)N4)C3)C2)c(Cl)c1 ?
stdout: 102

stdin: Which inhibition at 10 µM is listed for O=C1CCC2(CN(C(=O)c3cc4cc(-c5ccc(Cl)cc5)ccc4s3)C2)N1 ?
stdout: 83

stdin: Which inhibition at 10 µM is listed for O=C1NC2(CO1)CN(C(=O)c1sc3cc(F)ccc3c1Cl)C2 ?
stdout: 99

stdin: Which inhibition at 10 µM is listed for Cc1cscc1-c1ccc2c(Cl)c(C(=O)N3CC4(CCC(=O)N4)C3)sc2c1 ?
stdout: 100

stdin: Which inhibition at 10 µM is listed for O=C1CCC2(CN(C(=O)c3ccc(COc4ccccc4C(F)(F)F)cc3)C2)N1 ?
stdout: 99

stdin: Which inhibition at 10 µM is listed for O=C1NC2(CO1)CN(C(=O)c1sc3cc(Cl)cc(Cl)c3c1Cl)C2 ?
stdout: 101

stdin: Which inhibition at 10 µM is listed for O=C1CCC2(CN(C(=O)c3ccc(-c4ccccc4)cc3OC(F)(F)F)C2)N1 ?
stdout: 88

stdin: Which inhibition at 10 µM is listed for COc1cc(-c2ccccc2)ccc1C(=O)N1CC2(CCC(=O)N2)C1 ?
stdout: 87

stdin: Which inhibition at 10 µM is listed for O=C1CCC2(CN(C(=O)c3sc4cc(-c5ccc(Cl)cc5F)ccc4c3Cl)C2)N1 ?
stdout: 99

Reference source: patent US10610520B2
